- subject-of-test: human p38 kinase alpha (Homo sapiens)
- Construct: The coding region of the human p38a cDNA was obtained by PCR-amplification from RNA isolated from the human monocyte cell line THP.1
- Sequence (Q16539 whole entry): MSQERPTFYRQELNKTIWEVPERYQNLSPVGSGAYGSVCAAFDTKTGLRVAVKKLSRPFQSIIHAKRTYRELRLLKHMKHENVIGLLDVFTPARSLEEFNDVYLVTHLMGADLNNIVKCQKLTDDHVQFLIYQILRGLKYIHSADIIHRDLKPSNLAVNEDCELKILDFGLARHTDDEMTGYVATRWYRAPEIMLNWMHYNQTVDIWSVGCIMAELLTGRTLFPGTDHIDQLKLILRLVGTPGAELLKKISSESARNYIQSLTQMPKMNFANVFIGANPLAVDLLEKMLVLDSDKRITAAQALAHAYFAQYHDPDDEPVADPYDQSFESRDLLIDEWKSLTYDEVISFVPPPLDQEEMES
- assay: p38 kinase in vitro assay (PHAS-I / 32P-ATP format or EGFRP / 33P-ATP format)
- condition: activated human p38 kinase alpha, 50 μM unlabeled ATP; two assay formats, table does not say which
Where a name gives a salt, the structure may show the parent alone.
For each of the compounds below, state its IC50.
Write the number in nM without appending the unit.

Given the compound COC(=O)c1cccc(-c2nnc3ccc(C(O)c4ccc(F)cc4F)cn23)c1 (stereo not drawn) , what is its reported IC50?
1130

Given the compound CC(C)c1nnc2ccc([S+]([O-])c3ccc(F)cc3F)cn12 (stereo not drawn) , what is its reported IC50?
9680

Given the compound CC(C)c1nnc2ccc(Cc3ccc(F)cc3F)cn12 [8 (step 1)] , what is its reported IC50?
26.1

Given the compound Cc1ccc(C(N)=O)cc1-c1nnc2n1CC(CCc1ccc(F)cc1F)CC2 (racemic) , what is its reported IC50?
1270

Given the compound CNC(=O)c1ccc(-c2nnc3ccc(Sc4ccc(F)cc4F)cn23)cc1 , what is its reported IC50?
293

Given the compound CC(C)c1nnc2n1CC(Cc1ccc(F)cc1F)CC2 (stereo not drawn) [Example 8, hydrochloride] , what is its reported IC50?
5590

Given the compound CC(C)(C)c1nnc2ccc(Cc3ccc(F)cc3F)cn12 , what is its reported IC50?
122

Given the compound Cc1cc(C(O)CO)ccc1-c1nnc2ccc(Sc3ccc(F)cc3F)cn12 (stereo not drawn) [45 (step 4), hydrochloride] , what is its reported IC50?
28.3

Given the compound CC(C)c1nnc2ccc(CCc3ccc(F)cc3F)cn12 , what is its reported IC50?
85

Given the compound CC(C)c1nnc2ccc(Sc3ccc(F)cc3F)cn12 [34 (step 1), hydrochloride] , what is its reported IC50?
79.3

Given the compound CC(=O)OCC(=O)N1CCC(c2nnc3ccc(Sc4ccc(F)cc4F)cn23)CC1 [44 (step 4), acetate hydrochloride] , what is its reported IC50?
367

Given the compound O=C(NCCO)c1ccc(-c2nnc3ccc(Sc4ccc(F)cc4F)cn23)cc1 , what is its reported IC50?
93.6

Given the compound CC(C)(C)c1nnc2ccc(C(=O)c3ccc(F)cc3F)cn12 , what is its reported IC50?
1050
